- protocol-details: Octanol-water partition coefficient, log P of the compound at 1 mg by RP-HPLC analysis
- Assay type: physicochemical
quantity-measured: logP

Enquiry: Given the entry CC(=O)N(O)CCCCCNC(=O)CCC(=O)N(O)CCCCCNC(=O)CCC(=O)N(O)CCCCCNC(=O)C12CC3CC(CC(C3)C1)C2 , report its measured logP.
Return: 1.32

[1] CC(=O)N(O)CCCCCNC(=O)CCC(=O)N(O)CCCCCNC(=O)CCC(=O)N(O)CCCCCNC(=O)C12CC3CC(CC(Br)(C3)C1)C2
[2] CC(=O)N(O)CCCCCNC(=O)CCC(=O)N(O)CCCCCNC(=O)CCC(=O)N(O)CCCCCNC(=O)C[C@H]1C[C@H]2CC[C@H]1C2 (relative stereo)
Enquiry: Hey, between 1 and 2 which has a smaller measured logP? Write down the label of the entry you select.
Return: 2
